# testTarget: 5-hydroxytryptamine receptor 1D (Homo sapiens, UniProt P28221)
# Sequence (P28221 whole entry): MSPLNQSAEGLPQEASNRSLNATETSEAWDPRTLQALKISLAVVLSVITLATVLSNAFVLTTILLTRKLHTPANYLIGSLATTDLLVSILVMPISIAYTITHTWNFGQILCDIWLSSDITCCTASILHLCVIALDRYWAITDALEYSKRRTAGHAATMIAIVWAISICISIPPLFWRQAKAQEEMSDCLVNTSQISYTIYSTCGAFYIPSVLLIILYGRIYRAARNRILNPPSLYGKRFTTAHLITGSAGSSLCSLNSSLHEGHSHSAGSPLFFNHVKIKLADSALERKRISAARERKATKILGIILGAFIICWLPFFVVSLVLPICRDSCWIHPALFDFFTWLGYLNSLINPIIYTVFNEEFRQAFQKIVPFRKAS
# methodSummary: Displacement of [3H]5-CT from human recombinant 5-HT1D receptor expressed in HEKT cell membrane after 90 mins by scintillation counting method
endpoint: Ki (nM)
Numbers only; they are read as nM.

Lab note: COc1ccc(CCN(CCCc2ccccc2)CCc2ccc3c(c2)OCO3)cc1OC gave Ki of 451

====

# testTarget: 5-hydroxytryptamine receptor 2B (Homo sapiens)
# methodSummary: Antagonist activity at human recombinant 5-HT2B receptor expressed in Flp-In HEK cells in the presence of agonist preincubated for 10 mins by FLIPR based calcium mobilization assay
The reader will find reported log10 of IC50 values listed item by item below.
Answers are given as log10 of IC50 in µM.

Lab note: COc1ccc(CCN(CCCc2cc(OC)c(OC)c(OC)c2)Cc2ccc3c(c2)OCO3)cc1OC gave log10 of IC50 of 1.10

Lab note: COc1ccc(CCCN(CCc2ccc(OC)c(OC)c2)CCc2ccc3c(c2)OCO3)cc1 gave log10 of IC50 of 0.60

Lab note: COc1ccc(CCN(CCCc2ccccc2)CCc2ccc3c(c2)OCO3)cc1OC gave log10 of IC50 of -0.10

Lab note: COc1ccc(CCN(CCCc2cc(OC)c(OC)c(OC)c2)CCc2ccc3c(c2)OCO3)cc1OC gave log10 of IC50 of 0.10

Here is the next item to consider.
Lab note: COc1ccc(OC)c(CCCN(CCc2ccc(OC)c(OC)c2)CCc2ccc3c(c2)OCO3)c1 gave log10 of IC50 of 0.90

====

# testTarget: Histamine H1 receptor (Homo sapiens)
# Sequence (P35367 whole entry): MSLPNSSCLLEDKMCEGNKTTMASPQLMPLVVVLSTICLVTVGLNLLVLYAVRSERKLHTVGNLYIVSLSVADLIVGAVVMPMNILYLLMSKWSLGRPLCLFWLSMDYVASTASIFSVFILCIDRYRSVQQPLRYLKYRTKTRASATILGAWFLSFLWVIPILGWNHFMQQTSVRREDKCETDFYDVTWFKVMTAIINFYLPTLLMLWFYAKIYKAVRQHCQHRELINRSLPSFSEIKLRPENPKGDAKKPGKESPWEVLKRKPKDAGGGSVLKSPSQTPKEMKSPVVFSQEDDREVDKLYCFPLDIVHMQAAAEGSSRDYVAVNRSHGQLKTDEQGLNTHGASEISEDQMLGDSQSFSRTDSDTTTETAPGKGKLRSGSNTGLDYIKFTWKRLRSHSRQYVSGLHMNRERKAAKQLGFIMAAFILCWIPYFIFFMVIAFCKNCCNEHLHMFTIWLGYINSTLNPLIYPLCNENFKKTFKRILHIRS
# methodSummary: Displacement of [3H]Pyrilamine from human H1 Histamine receptors stably expressed in HEK cell membrane after 90 mins by scintillation counting method
# Assay type: cell membranes, HEK293
endpoint: pKi
Lab note — pKi values are minus log10 of concentrations in M.

Lab note: COc1ccc(CCN(CCCc2ccccc2)CCc2ccc3c(c2)OCO3)cc1OC gave pKi of 5.89

====

# testTarget: UniProt:P34969
# Sequence (P34969 whole entry): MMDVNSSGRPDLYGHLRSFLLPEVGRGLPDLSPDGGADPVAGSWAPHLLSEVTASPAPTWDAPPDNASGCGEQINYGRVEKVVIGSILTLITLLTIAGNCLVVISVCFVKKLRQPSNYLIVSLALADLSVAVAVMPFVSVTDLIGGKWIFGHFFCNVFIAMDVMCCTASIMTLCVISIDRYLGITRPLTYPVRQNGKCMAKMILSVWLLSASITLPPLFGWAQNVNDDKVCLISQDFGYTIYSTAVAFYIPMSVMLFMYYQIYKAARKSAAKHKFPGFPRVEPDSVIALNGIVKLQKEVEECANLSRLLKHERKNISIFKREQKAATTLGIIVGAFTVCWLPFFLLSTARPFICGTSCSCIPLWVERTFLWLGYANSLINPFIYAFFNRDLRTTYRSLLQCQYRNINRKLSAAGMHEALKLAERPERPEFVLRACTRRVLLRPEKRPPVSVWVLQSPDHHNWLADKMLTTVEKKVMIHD
# methodSummary: Displacement of [3H]LSD from human recombinant 5-HT7A receptor stably expressed in HEKT cell membrane after 90 mins by scintillation counting method
endpoint: pKi
Lab note — pKi values are minus log10 of concentrations in M.

Lab note: COc1ccc(CCN(CCCc2ccccc2)CCc2ccc3c(c2)OCO3)cc1OC gave pKi of 6.15

====

# testTarget: D(4) dopamine receptor (Homo sapiens, UniProt P21917)
# Sequence (P21917 whole entry): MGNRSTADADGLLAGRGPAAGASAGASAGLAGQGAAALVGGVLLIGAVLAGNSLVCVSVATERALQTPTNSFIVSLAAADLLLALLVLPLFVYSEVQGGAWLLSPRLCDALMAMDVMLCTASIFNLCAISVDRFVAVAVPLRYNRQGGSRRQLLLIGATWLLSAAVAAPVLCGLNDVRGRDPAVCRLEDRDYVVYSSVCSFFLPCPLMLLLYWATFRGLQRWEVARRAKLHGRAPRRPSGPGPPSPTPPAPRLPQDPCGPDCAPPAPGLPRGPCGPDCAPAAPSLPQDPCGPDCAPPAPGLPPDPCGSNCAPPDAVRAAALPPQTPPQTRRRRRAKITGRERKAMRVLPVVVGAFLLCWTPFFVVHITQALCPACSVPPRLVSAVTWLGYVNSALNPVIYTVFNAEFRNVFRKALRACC
# methodSummary: Displacement of [3H]N-methylspiperone from human recombinant dopamine D4 receptor after 90 mins by scintillation counting method
endpoint: Ki (nM)
Numbers only; they are read as nM.

Lab note: COc1ccc(CCN(CCCc2ccccc2)CCc2ccc3c(c2)OCO3)cc1OC gave Ki of 853

====

# testTarget: 5-hydroxytryptamine receptor 1A (Homo sapiens)
# Sequence (P08908 whole entry): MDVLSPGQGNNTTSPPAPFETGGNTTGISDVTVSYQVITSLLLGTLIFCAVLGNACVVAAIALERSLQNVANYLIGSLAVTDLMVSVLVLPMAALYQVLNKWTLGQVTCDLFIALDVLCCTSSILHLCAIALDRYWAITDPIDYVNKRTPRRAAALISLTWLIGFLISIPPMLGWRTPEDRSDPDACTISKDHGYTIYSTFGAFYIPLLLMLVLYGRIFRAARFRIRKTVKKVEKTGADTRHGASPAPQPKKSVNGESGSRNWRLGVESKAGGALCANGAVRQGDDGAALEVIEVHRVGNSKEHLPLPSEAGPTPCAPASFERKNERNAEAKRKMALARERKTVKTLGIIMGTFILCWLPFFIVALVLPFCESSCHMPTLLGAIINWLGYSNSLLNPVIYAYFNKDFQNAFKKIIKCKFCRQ
# methodSummary: Displacement of [3H]Way100635 from human recombinant 5-HT1A receptor stably expressed in CHO cell membrane after 90 mins by scintillation counting method
endpoint: Ki (nM)
Numbers only; they are read as nM.

Lab note: COc1ccc(CCN(CCCc2ccccc2)CCc2ccc3c(c2)OCO3)cc1OC gave Ki of 821

====

The reader will find reported pKi values listed item by item below.
# testTarget: 5-hydroxytryptamine receptor 2B (Homo sapiens, UniProt P41595)
# Sequence (P41595 whole entry): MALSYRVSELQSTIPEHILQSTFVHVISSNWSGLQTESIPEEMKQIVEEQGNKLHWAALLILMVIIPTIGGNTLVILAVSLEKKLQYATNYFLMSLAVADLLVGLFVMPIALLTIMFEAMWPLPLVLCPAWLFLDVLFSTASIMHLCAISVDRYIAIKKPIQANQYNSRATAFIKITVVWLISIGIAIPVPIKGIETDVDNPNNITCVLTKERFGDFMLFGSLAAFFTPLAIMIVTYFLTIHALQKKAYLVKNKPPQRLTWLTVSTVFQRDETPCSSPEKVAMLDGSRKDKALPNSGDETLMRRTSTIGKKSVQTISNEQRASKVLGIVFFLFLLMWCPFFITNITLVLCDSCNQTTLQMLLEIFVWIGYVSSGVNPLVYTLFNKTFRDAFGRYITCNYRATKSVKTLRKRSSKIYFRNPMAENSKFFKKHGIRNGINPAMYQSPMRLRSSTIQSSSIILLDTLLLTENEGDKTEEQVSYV
# methodSummary: Displacement of [3H]LSD from human recombinant 5-HT2B receptor stably expressed in HEK cell membrane after 90 mins by scintillation counting method
Lab note — pKi values are minus log10 of concentrations in M.

Some solved cases for reference:
Here COc1ccccc1CCCN(CCc1ccc(OC)c(OC)c1)CCc1ccc2c(c1)OCO2 was tested on 5-hydroxytryptamine receptor 2B (Homo sapiens, UniProt P41595), and its pKi came to 8.24

Here COc1ccc(CCCN(CCc2ccc(OC)c(OC)c2)CCc2ccc3c(c2)OCO3)cc1 was tested on 5-hydroxytryptamine receptor 2B (Homo sapiens, UniProt P41595), and its pKi came to 8.17

Here COc1ccc(CCN(CC/C=C\c2ccccc2)Cc2ccc3c(c2)OCO3)cc1OC was tested on 5-hydroxytryptamine receptor 2B (Homo sapiens, UniProt P41595), and its pKi came to 7.68

---
Here COc1ccc(CCN(CCCc2cc(OC)c(OC)c(OC)c2)Cc2ccc3c(c2)OCO3)cc1OC was tested on 5-hydroxytryptamine receptor 2B (Homo sapiens, UniProt P41595), and its pKi came to 6.64

Here COc1ccc(CCN(CCCc2cc(OC)c(OC)c(OC)c2)CCc2ccc3c(c2)OCO3)cc1OC was tested on 5-hydroxytryptamine receptor 2B (Homo sapiens, UniProt P41595), and its pKi came to 8.39

====

# testTarget: D(3) dopamine receptor (Homo sapiens, UniProt P35462)
# Sequence (P35462 whole entry): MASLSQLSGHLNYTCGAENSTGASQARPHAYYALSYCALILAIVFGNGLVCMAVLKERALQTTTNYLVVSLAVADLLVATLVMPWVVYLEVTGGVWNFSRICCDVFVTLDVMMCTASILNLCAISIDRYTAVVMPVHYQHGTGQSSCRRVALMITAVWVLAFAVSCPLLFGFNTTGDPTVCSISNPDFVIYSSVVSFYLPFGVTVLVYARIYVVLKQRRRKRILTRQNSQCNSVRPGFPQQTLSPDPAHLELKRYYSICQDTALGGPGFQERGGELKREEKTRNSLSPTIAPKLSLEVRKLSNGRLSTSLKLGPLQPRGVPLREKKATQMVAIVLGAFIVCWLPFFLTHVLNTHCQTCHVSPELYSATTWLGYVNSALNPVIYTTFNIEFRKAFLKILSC
# methodSummary: Displacement of [3H]N-methylspiperone from human recombinant dopamine D3 receptor expressed in HEKT cell membrane after 90 mins by scintillation counting method
# Type: cell membranes
endpoint: pKi
Lab note — pKi values are minus log10 of concentrations in M.

Lab note: COc1ccc(CCN(CCCc2ccccc2)CCc2ccc3c(c2)OCO3)cc1OC gave pKi of 6.30

====

# System: HEK293
# methodSummary: Selectivity ratio of Ki for human recombinant 5-HT2A receptor expressed in HEKT cell membrane to Ki for human recombinant 5-HT2B receptor stably expressed in HEK cells
# Assay type: cell-based
Kindly return Yes if reported Ratio Ki is no lower than 30; return No if it is lower.

// below: answered molecules
Prompt: Hi, just wondering whether COc1ccccc1CCCN(CCc1ccc(OC)c(OC)c1)CCc1ccc2c(c1)OCO2 shows Ratio Ki of 30 or higher.
Response: No

Prompt: Hi, just wondering whether COc1cccc(CCCN(CCc2ccc(OC)c(OC)c2)CCc2ccc3c(c2)OCO3)c1 shows Ratio Ki of 30 or higher.
Response: Yes

Prompt: Hi, just wondering whether COc1ccc(CCCN(CCc2ccc(OC)c(OC)c2)CCc2ccc3c(c2)OCO3)cc1 shows Ratio Ki of 30 or higher.
Response: Yes

---
Prompt: Hi, just wondering whether COc1ccc(CCN(CCc2ccc3c(c2)OCO3)Cc2ccccc2)cc1OC shows Ratio Ki of 30 or higher.
Response: Yes

Prompt: Hi, just wondering whether COc1ccc(CCN(CCc2ccccc2)CCc2ccc3c(c2)OCO3)cc1OC shows Ratio Ki of 30 or higher.
Response: Yes

Prompt: Hi, just wondering whether COc1ccc(CCN(CCCc2ccccc2)CCc2ccc3c(c2)OCO3)cc1OC shows Ratio Ki of 30 or higher.
Response: No

====

# testTarget: Sodium-dependent dopamine transporter (Homo sapiens)
# Sequence (Q01959 whole entry): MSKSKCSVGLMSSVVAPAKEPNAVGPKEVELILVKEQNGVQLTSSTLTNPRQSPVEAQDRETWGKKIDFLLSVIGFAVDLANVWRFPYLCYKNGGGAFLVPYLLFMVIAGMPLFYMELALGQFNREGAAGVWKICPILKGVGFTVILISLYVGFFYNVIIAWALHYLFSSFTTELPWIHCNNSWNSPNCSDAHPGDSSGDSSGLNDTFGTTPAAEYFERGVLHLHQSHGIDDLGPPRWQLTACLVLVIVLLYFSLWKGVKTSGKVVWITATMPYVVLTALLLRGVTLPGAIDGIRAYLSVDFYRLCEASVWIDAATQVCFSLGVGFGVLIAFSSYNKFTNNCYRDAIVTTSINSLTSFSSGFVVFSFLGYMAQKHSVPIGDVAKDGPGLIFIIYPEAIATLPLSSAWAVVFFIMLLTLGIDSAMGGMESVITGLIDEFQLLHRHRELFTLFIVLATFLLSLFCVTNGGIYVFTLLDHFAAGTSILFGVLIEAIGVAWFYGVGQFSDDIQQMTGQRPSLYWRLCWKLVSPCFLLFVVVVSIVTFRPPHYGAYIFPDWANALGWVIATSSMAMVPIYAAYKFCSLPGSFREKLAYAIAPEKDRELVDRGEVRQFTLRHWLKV
# methodSummary: Displacement of [3H]WIN35428 from human dopamine transporter stably expressed in HEK293 cells after 30 mins by neurotransmitter transporter uptake assay
endpoint: pKi
Lab note — pKi values are minus log10 of concentrations in M.

Lab note: COc1ccc(CCN(CCCc2ccccc2)CCc2ccc3c(c2)OCO3)cc1OC gave pKi of 6.30

====

# testTarget: D(2) dopamine receptor (Homo sapiens)
# Sequence (P14416 whole entry): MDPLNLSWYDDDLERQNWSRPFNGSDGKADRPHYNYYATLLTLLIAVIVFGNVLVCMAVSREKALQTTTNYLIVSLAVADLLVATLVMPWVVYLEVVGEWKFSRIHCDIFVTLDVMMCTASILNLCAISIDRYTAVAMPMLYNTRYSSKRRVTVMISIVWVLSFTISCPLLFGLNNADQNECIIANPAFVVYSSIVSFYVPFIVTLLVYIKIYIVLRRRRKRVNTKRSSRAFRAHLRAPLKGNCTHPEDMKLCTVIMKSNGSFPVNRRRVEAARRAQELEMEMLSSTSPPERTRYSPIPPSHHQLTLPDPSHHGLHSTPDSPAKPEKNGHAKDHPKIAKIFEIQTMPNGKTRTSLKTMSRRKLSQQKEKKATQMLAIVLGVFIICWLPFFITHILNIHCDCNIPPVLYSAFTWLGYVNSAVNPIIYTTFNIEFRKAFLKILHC
# methodSummary: Displacement of [3H]N-methylspiperone from human recombinant dopamine D2 receptor expressed in stable fibroblast after 90 mins by scintillation counting method
endpoint: Ki (nM)
Numbers only; they are read as nM.

Lab note: COc1ccc(CCN(CCCc2ccccc2)CCc2ccc3c(c2)OCO3)cc1OC gave Ki of 1730

====

# testTarget: Alpha-2B adrenergic receptor (Homo sapiens, UniProt P18089)
# Sequence (P18089 whole entry): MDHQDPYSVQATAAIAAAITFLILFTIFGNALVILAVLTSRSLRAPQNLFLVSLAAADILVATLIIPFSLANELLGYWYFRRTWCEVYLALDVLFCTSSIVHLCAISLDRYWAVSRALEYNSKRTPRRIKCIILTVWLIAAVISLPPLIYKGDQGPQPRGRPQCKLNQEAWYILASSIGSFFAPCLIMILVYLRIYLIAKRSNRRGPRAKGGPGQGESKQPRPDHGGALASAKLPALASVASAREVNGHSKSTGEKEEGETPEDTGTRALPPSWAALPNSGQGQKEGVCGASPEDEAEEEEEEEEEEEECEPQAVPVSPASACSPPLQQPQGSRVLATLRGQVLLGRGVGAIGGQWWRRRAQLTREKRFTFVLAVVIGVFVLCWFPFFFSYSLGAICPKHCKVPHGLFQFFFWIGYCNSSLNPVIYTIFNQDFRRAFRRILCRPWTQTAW
# methodSummary: Displacement of [3H]Rauwolscine from human recombinant alpha 2B receptor expressed in HEKT cells after 90 mins by scintillation counting method
endpoint: Ki
Answer with the figure and its unit, nothing else.

Here COc1ccc(CCN(CCCc2ccccc2)CCc2ccc3c(c2)OCO3)cc1OC was tested on Alpha-2B adrenergic receptor (Homo sapiens, UniProt P18089), and its Ki came to 29 nM

====

# testTarget: Sodium-dependent noradrenaline transporter (Homo sapiens)
# Sequence (P23975 whole entry): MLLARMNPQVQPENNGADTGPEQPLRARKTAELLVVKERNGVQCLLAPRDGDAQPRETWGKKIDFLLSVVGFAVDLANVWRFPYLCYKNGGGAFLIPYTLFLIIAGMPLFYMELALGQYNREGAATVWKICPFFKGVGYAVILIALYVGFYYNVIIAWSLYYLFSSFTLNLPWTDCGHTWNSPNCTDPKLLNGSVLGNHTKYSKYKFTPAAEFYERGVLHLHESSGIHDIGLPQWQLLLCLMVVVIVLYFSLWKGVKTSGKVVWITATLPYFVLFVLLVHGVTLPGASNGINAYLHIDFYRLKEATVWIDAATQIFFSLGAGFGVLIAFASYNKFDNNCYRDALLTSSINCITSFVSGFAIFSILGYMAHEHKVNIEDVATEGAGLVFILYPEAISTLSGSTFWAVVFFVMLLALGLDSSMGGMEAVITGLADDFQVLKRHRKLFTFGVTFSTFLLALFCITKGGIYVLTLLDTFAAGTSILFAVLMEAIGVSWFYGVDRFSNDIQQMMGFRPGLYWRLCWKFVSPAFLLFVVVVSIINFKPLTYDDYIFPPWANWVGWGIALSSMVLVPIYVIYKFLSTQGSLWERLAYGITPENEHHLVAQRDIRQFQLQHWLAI
# methodSummary: Displacement of [3H]Nisoxetine from human norepinephrine transporter stably expressed in HEK293 cells after 30 mins by neurotransmitter transporter uptake assay
# Type: cell-based
endpoint: pKi
Lab note — pKi values are minus log10 of concentrations in M.

Lab note: COc1ccc(CCN(CCCc2ccccc2)CCc2ccc3c(c2)OCO3)cc1OC gave pKi of 7.96
